# Test system: UGT2B7
# assay overview: ZDV glucuronidation kinetics in RLM
# condition details: rat, pH 7.4, Km, without 1% BSA, mean ± SD
metric name: Km at 90 min (mM)
State just the number; it will be interpreted in mM.

Ask | Please look at Cc1cn([C@H]2C[C@H](N=[N+]=[N-])[C@@H](CO)O2)c(=O)[nH]c1=O [zidovudine, 3′-Azido-3′-deoxythymidine] and tell me its recorded Km at 90 min on UGT2B7.
Reply | 8.84

* * *

# target of assay: UGT2B7 (Homo sapiens)
# Sequence (P16662 24-529): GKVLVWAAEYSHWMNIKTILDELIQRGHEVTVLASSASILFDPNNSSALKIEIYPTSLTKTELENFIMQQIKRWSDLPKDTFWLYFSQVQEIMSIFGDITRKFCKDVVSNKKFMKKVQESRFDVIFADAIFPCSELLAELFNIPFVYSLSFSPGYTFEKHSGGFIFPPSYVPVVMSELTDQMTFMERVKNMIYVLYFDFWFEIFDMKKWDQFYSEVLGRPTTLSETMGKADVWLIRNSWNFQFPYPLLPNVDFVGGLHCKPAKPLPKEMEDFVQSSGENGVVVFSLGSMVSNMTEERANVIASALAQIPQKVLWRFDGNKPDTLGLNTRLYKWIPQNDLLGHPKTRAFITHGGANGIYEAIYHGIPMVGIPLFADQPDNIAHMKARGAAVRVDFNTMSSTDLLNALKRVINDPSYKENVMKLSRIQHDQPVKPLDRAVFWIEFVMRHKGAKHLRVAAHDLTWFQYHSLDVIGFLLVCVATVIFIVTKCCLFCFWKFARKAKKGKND
# assay overview: in vitro
# condition details: human liver microsomes, pH 7.4, CLint, HLM, with 1% BSA, Vmax/Km
metric name: microsomal CLint (µL/min/mg)
State just the number; it will be interpreted in µL/min/mg.

Ask | Give reported microsomal CLint value for Cc1cn([C@H]2C[C@H](N=[N+]=[N-])[C@@H](CO)O2)c(=O)[nH]c1=O
Reply | 1.65
